# MEASURED ON: MELK (Homo sapiens)
# Construct: lines 1-140) and Reaction Biology
# Sequence (Q14680 whole entry): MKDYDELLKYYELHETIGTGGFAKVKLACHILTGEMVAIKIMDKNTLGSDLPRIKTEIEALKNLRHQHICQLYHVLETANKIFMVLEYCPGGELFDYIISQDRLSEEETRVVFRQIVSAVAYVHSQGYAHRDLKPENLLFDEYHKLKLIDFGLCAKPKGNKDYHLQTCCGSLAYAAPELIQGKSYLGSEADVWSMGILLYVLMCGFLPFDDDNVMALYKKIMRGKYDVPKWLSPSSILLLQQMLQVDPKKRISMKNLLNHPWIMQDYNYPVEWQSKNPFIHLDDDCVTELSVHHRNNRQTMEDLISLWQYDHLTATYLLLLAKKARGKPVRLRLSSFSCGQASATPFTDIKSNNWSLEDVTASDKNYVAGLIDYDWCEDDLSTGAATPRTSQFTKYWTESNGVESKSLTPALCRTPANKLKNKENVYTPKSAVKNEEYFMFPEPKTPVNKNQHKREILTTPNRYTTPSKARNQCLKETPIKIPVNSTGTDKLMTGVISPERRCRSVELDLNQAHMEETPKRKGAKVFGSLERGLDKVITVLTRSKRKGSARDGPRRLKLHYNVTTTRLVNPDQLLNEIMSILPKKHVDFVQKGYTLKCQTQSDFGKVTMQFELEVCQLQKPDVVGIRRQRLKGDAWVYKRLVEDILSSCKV
# PROCEDURE DETAILS: Dundee kinase panel
# Assay type: biochemical
# CONDITION CONTEXT: read-out: residual activity
PARAMETER: remaining activity at 1 µM (%)
Give the value in % but do not write % after it.

COMPOUND: COCCOc1ccc(-c2cn(-c3ccccc3)c3nc[nH]c(=O)c23)cc1 [DMX-5804]
MEASUREMENT UNITS: %
NUMERIC RESULT: 83

COMPOUND: O=C1Nc2ccc(I)cc2/C1=C/c1cc(Br)c(O)c(Br)c1 [GW5074]
MEASUREMENT UNITS: %
NUMERIC RESULT: 48

COMPOUND: O=C1Cc2c([nH]c3ccc(Br)cc23)-c2ccccc2N1 [Kenpaullone]
MEASUREMENT UNITS: %
NUMERIC RESULT: 38

Would you kindly look at the next entry?
In: Entry Oc1ncnc2c1c(-c1ccccc1)cn2-c1ccccc1 [F1386-0303] : reported remaining activity at 1 µM = ?
Out: 90
